Tested on: NCI-H226 lung
assay_overview: NCI tumour cell line growth inhibition, 48 h
Task for the reader: assign each of the following molecules its reported TGI.
Numbers only, in µM.

Observe how each entry below is paired with its result.
CCN(CC)CCCNc1[nH]ncc2c(C)c3nc4ccc(OC)cc4c3cc12
1.7
C[C@]12CCNC(=O)C=C1CC[C@@H]1C2CC[C@@]2(C)C1CC[C@@H]2OC(=O)COc1ccc(N(CCCl)CCCl)cc1 (some centres undefined)
28.5
CC(C)(C)OC(=O)CN1CCN(CC(=O)N2CCN(C(=O)OCc3ccccc3)CC2)CCN(CC(=O)OC(C)(C)C)CCN(CC(=O)N2CCN(C(=O)OCc3ccccc3)CC2)CC1
22.8

Consider now this further molecule.
stdin: Consider the molecule shown here: C=C(C)C(=O)O[C@@H]1C/C(C)=C\[C@H](OC(C)=O)C[C@](C)(O)/C=C2/OC(=O)C(COC(C)=O)=C21 What is its recorded TGI?
stdout: 6.17

---

Form: system (U251 CNS), quantity (GI50), values below.

Known results for compounds:
COc1cc(NCCN=C(N)NC(N)=NC(C)C)c2ncccc2c1
12400 nM
Cc1c(C(N)=O)sc2c1c(=O)n(Cc1ccccc1)c1nnc(-c3ccc(Br)cc3)n21
1560 nM
O=C(Nc1cc(Oc2cc(F)c(NC(=O)C3(C(=O)Nc4ccc(F)cc4)CC3)cc2F)ccn1)C1CC1
3960 nM

Batch lookup, GI50 per entry.
1. O=C(/C=C/C12c3ccccc3C(c3ccccc31)C1C(=O)NC(=O)C12)c1ccc(Cl)cc1 (centres undefined)
2. C#COc1cccc(Nc2ncnc3cc(NC(=O)[C@H](C)Cl)ccc23)c1
3. O=C(N/N=C/c1cc(Cl)cc(Cl)c1[O-])c1ccccc1.O=C(N/N=C/c1cc(Cl)cc(Cl)c1[O-])c1ccccc1.[Co+2]
4. c1ccc([As]=[As]c2ccccc2)cc1 (centres undefined)

stdout:
["1520 nM", "2840 nM", "33500 nM", "752 nM"]

Hi, could you look up GI50 for each item in my list?
1. ClCc1cccc(CSc2ncnc3c2ncn3Cc2cccc(CCl)c2)c1
2. O=c1cc(-c2ccccc2)oc2cc(OC/C(=N/O)c3ccc(F)cc3)ccc12

stdout:
["1590 nM", "22000 nM"]

---

System: 786-0 renal
assay_overview: NCI tumour cell line growth inhibition, 48 h
Please go through the items and note down their TGI.

Observe how each entry below is paired with its result.
CO[C@@H]1C[C@H](OC(N)=O)[C@@H]2C=C[C@@H]3/C=C(C)/C=C/[C@@H](C)[C@H](/C(C)=C/[C@@H](C)NC(C)=O)OC(=O)/C=C/C=C(C)\C=C\[C@]3(C)[C@@H]2C1
2.74 µM
COc1cccc2c1C(=O)OC2c1cccc2ccccc12 (centres undefined)
> 100 µM
O=c1oc2ccc(-c3ccc(F)cc3F)cc2c(=O)n1-c1ccc(Cl)c(C(F)(F)F)c1
5.68 µM
NNC(=O)c1ccc(OCc2nc3ccccc3[nH]2)cc1
> 100 µM
O=C1CSC2=NC3=C(CSC/C3=C\c3ccccc3)C(c3ccccc3)N12 (centres undefined)
> 100 µM

Record TGI for all entries; do not skip any.
1. CSCCCNC(=O)c1csc(-c2csc(CCNC(=O)CNC(=O)CNC(=O)OC(C)(C)C)n2)n1
2. Cc1nc2sccn2c1C(=O)NC(=O)Nc1ccc(Cl)cc1
3. Cc1c(N2C(=O)/C(=C/c3ccc(N(CCC#N)CCC#N)cc3)N=C2c2ccccc2)c(=O)n(-c2ccccc2)n1C
4. CCOC(=O)/C(=C/c1ccc(N(CCC#N)CCC#N)cc1C)NC(=O)/C=C/c1ccccc1

stdout:
> 100 µM
> 100 µM
> 100 µM
> 100 µM
